From: ChEMBL document CHEMBL3102837

Species: Homo sapiens
test.details: Inhibition of alpha-chymotrypsin (unknown origin)
Calls of active or inactive are those of the source. The rule behind the calls is not given here.
metric: inhibition

[[record]]
substance_smiles = "O=C(N/N=C1/c2ccccc2-c2nc3ccccc3nc21)c1ccc(Cl)cc1"
metric = "inhibition"
result = "Active"

[[record]]
substance_smiles = "O=C(N/N=C1/c2ccccc2-c2nc3ccccc3nc21)c1cccc(Br)c1"
metric = "inhibition"
result = "Active"

[[record]]
substance_smiles = "c1ccc2c(c1)/C(=N/N=C1\\c3ccccc3-c3nc4ccccc4nc31)c1nc3ccccc3nc1-2"
metric = "inhibition"
result = "Active"

[[record]]
substance_smiles = "O=C(N/N=C1/c2ccccc2-c2nc3ccccc3nc21)c1ccc(Br)cc1"
metric = "inhibition"
result = "Active"

[[record]]
substance_smiles = "O=C(N/N=C1/c2ccccc2-c2nc3ccccc3nc21)c1ccccc1Cl"
metric = "inhibition"
result = "Active"

[[record]]
substance_smiles = "O=C(N/N=C1/c2ccccc2-c2nc3ccccc3nc21)c1ccccc1"
metric = "inhibition"
result = "Active"


Please look at the items below and tell me inhibition for each one, in order.
1. O=C(N/N=C1/c2ccccc2-c2nc3ccccc3nc21)c1cccc(Cl)c1
2. O=C(N/N=C1/c2ccccc2-c2nc3ccccc3nc21)c1cccc(I)c1
3. O=C(N/N=C1/c2ccccc2-c2nc3ccccc3nc21)c1ccccc1[N+](=O)[O-]
4. Nc1ccccc1C(=O)N/N=C1/c2ccccc2-c2nc3ccccc3nc21

1. Active
2. Active
3. Active
4. Active
